Entries annotated with measured melting point

# count of solved cases: 5
MOLECULE	melting point
O=S(=O)(Nc1ccc2c(OCc3ccc4ccccc4c3)cccc2c1)C(F)(F)F	140 to 142 °C
O=S(=O)(Nc1ccc2c(OCc3csc(-c4ccc(OC(F)(F)F)cc4)n3)cccc2c1)C(F)(F)F	131 to 132 °C
O=S(=O)(Nc1ccc2c(OCc3noc(C45CC6CC(CC(C6)C4)C5)n3)cccc2c1)C(F)(F)F	60 to 62 °C
O=S(=O)(Nc1ccc2c(OCc3csc(C4COc5ccccc5O4)n3)cccc2c1)C(F)(F)F (stereo not shown)	183 to 185 °C
O=S(=O)(Nc1ccc2c(OCc3csc(-c4ccccc4)n3)cccc2c1)C(F)(F)F	89 to 99 °C

Form field melting point, entry "NC(=O)Nc1ccc2c(OCc3ccc(-c4ccc(Cl)cc4)cc3)cccc2c1" : 182 °C (dec.)

Per the record, COC1(F)C=CC(c2cccc(COc3cccc4cc(NS(=O)(=O)C(F)(F)F)ccc34)c2)=CC1 (stereo not shown) has melting point of 125 to 127 °C

Please fill in: melting point reported for "O=S(=O)(Nc1ccc2c(OCc3csc(-c4ccc(F)cc4)n3)cccc2c1)C(F)(F)F" = 170 to 173 °C

Field melting point (entry "O=S(=O)(Nc1ccc2c(OCc3cccc(-c4ccc(C(F)(F)F)cc4)n3)cccc2c1)C(F)(F)F" ) reads 180 to 182 °C

// "Cc1oc(-c2ccc(F)cc2)nc1COc1cccc2cc(NS(=O)(=O)C(F)(F)F)ccc12" : melting point value = 178 to 180 °C

====

Catalogue of molecules with associated melting point

Here are 2 molecules together with their reported answers.
MOLECULE	melting point
O=S(=O)(Nc1ccc2c(OCc3ccc(-c4ccccc4)cc3F)cccc2c1)C(F)(F)F [Example 4]	123 to 125 °C
O=S(=O)(Nc1ccc2c(OCc3ccc(-c4ccc(C(F)(F)F)cc4)cc3F)cccc2c1)C(F)(F)F [Example 5]	98 to 100 °C

Noted for O=S(=O)(Nc1ccc2c(OCc3coc(-c4ccccc4)n3)cccc2c1)C(F)(F)F [Example 80] : its melting point reads 195 to 197 °C

Sample COc1ccc(-c2cccc(COc3cccc4cc(NS(=O)(=O)C(F)(F)F)ccc34)c2)cc1 [Example 20] ; melting point observed: 123 to 125 °C

====

Reported values of melting point for individual entries

Worked examples follow.
MOLECULE	melting point
CC(C)(C)c1ccc(-c2ccc(COc3cccc4cc(NS(=O)(=O)C(F)(F)F)ccc34)c(F)c2)cc1	162 to 164 °C
O=S(=O)(Nc1ccc2c(OCc3ccc(-c4ccc(Cl)cc4)cc3F)cccc2c1)C(F)(F)F	151 to 153 °C
O=S(=O)(Nc1ccc2c(OCc3coc(-c4ccc(C(F)(F)F)cc4)n3)cccc2c1)C(F)(F)F	205 to 207 °C

Entry "O=S(=O)(Nc1ccc2c(OCc3ccc(-c4ccccc4)cc3Cl)cccc2c1)C(F)(F)F" ; melting point = 131 to 134 °C

Looking up "O=S(=O)(Nc1ccc2c(OCc3cccc(-c4ccc(F)cc4)n3)cccc2c1)C(F)(F)F" , I see its melting point listed as 173 to 174 °C

// recorded melting point for "COc1ccc(-c2ccc(Cl)cc2)cc1COc1cccc2cc(NC(N)=O)ccc12" : 200 °C (dec.)

Data point: "O=S(=O)(Nc1ccc2c(OCc3ccc(-c4ccc(Cl)c(Cl)c4)cc3Cl)cccc2c1)C(F)(F)F" ; melting point = 169 to 170 °C

Value of measured melting point for the entry COc1cccc(C2(COc3cccc4cc(NS(=O)(=O)C(F)(F)F)ccc34)N=CNO2)c1 (stereo not shown) : 138 to 140 °C

Looking up "O=S(=O)(Nc1ccc2c(OCc3ccc(-c4cccc(Cl)c4)cc3)cccc2c1)C(F)(F)F" , I found its melting point recorded as 170 to 171 °C

Documented melting point of "O=S(=O)(Nc1ccc2c(OCc3csc(-c4ccc(C(F)(F)F)cn4)n3)cccc2c1)C(F)(F)F" : 197 to 198 °C

Recorded result, "O=S(=O)(Nc1ccc2c(OCc3csc(-c4ccc(Cl)cc4)n3)cccc2c1)C(F)(F)F" , melting point: 151 to 153 °C

Entry "O=S(=O)(Nc1ccc2c(OCc3coc(-c4ccc(Cl)cc4)n3)cccc2c1)C(F)(F)F" ; melting point = 198 to 200 °C

get_value(item= "COc1ccc(-c2ccc(Cl)cc2)cc1COc1cccc2cc(NS(=O)(=O)C(F)(F)F)ccc12" , readout=melting point) returns 155 to 157 °C

melting point in this record for "O=S(=O)(Nc1ccc2c(OCc3nc(-c4ccc(F)cc4)no3)cccc2c1)C(F)(F)F" : 131 to 132 °C

Entry "O=S(=O)(Nc1ccc2c(OCc3nc(-c4cccc(C(F)(F)F)c4)no3)cccc2c1)C(F)(F)F" — recorded melting point = 155 to 156 °C

Value of measured melting point for the entry "O=S(=O)(Nc1ccc2c(OCc3csc(-c4ccccc4Cl)n3)cccc2c1)C(F)(F)F" : 128 to 129 °C
